# measurementProtocol: Human microsome stability assay
# Type: in vitro ADME
# conditionInfo: human liver microsomes, 1 μM test compound, 0.5 mg/mL microsomal protein, 37° C., pH 7.4, 0-30 minutes
Recorded Clearance of Human microsome for the following molecules
reportedEndpoint: Clearance of Human microsome (mL/min/kg)

[[record]]
molecule = "COc1cc(OCCO[C@H]2C[C@@H](C(=O)O)C2)c(-c2cc(=O)c3cccc(Cl)c3o2)cc1OC"
readoutunit = "mL/min/kg"
resultnumber = 6.15

[[record]]
molecule = "Cc1ccc(-c2cc(=O)c3cccc(Cl)c3o2)c(OCC(C)(C)C(=O)O)c1"
readoutunit = "mL/min/kg"
resultnumber = 6.15

[[record]]
molecule = "O=C(O)C1CCC(Oc2cc(Br)ccc2-c2cc(=O)c3cccc(Cl)c3o2)CC1 (stereo not drawn)"
readoutunit = "mL/min/kg"
resultnumber = 6.15

[[record]]
molecule = "Cc1cc(-c2cc(=O)c3cccc(Cl)c3o2)c(OCC(=O)N2CC[C@@H](O)C2)cc1Br"
readoutunit = "mL/min/kg"
resultnumber = 6.69

[[record]]
molecule = "O=c1cc(-c2ccc(C(F)(F)F)cc2O[C@H]2C[C@H](C(=O)O)C2)oc2c(Cl)ccc(O)c12"
readoutunit = "mL/min/kg"
resultnumber = 9.59

[[record]]
molecule = "COc1cc(OCCCC(=O)O)c(-c2cc(=O)c3cccc(Cl)c3o2)cc1OC"
readoutunit = "mL/min/kg"
resultnumber = 6.15

[[record]]
molecule = "O=c1cc(-c2cc(C(F)(F)F)c(Br)cc2O[C@H]2C[C@H](C(=O)O)C2)oc2c(Cl)cccc12"
readoutunit = "mL/min/kg"
resultnumber = 7.41

[[record]]
molecule = "O=c1cc(-c2cc(F)c(Br)cc2OCCO[C@H]2C[C@@H](C(=O)O)C2)oc2c(Cl)cccc12"
readoutunit = "mL/min/kg"
resultnumber = 6.15

[[record]]
molecule = "CCOc1ccc(-c2cc(=O)c3c(O)ccc(Cl)c3o2)c(O[C@H]2C[C@H](C(=O)O)C2)c1"
readoutunit = "mL/min/kg"
resultnumber = 6.15

[[record]]
molecule = "COc1cc(OCCO[C@H]2C[C@@H](C(=O)O)C2)c(-c2cc(=O)c3cccc(Cl)c3o2)cc1OC(F)F"
readoutunit = "mL/min/kg"
resultnumber = 6.15

[[record]]
molecule = "Cc1cc(OCCC(=O)O)c(-c2cc(=O)c3cccc(Cl)c3o2)cc1OC(F)(F)F"
readoutunit = "mL/min/kg"
resultnumber = 6.15

[[record]]
molecule = "CCOc1cc(OCCO[C@H]2C[C@@H](C(=O)O)C2)c(-c2cc(=O)c3cccc(Cl)c3o2)cc1OC"
readoutunit = "mL/min/kg"
resultnumber = 6.15

[[record]]
molecule = "O=C(O)[C@H](COc1cc(C(F)(F)F)ccc1-c1cc(=O)c2cccc(Cl)c2o1)NS(=O)(=O)C1CC1"
readoutunit = "mL/min/kg"
resultnumber = 6.15

[[record]]
molecule = "CCOc1ccc(-c2cc(=O)c3cccc(Cl)c3o2)c(OCCO[C@H]2C[C@@H](C(=O)O)C2)c1"
readoutunit = "mL/min/kg"
resultnumber = 8.64

[[record]]
molecule = "CC(C)(Oc1cc(Br)ccc1-c1cc(=O)c2cccc(Cl)c2o1)C(=O)O"
readoutunit = "mL/min/kg"
resultnumber = 6.15


Each recorded value in this set is attributed to patent US11708344B2.
